Recorded values, source ChEMBL document CHEMBL4425119.

assay: Permeability across basolateral to apical side of MDCK cells; type: ADME, cell-based, Canis lupus familiaris; details: dog
Examples of compounds with documented Papp B→A follow.
Observed Property: Papp B→A (×10⁻⁶ cm/s)

{"Given Smiles": "CNc1nccc(N2CC[C@H](NC(=O)Nc3ccc(C)c(Cl)c3)C2)n1", "Observed Property": "Papp B→A", "Result Number": 7}
{"Given Smiles": "CCN1CCN(Cc2ccc(NC(=O)N[C@H]3CCN(c4ccnc(NC)n4)C3)cc2C(F)(F)F)CC1", "Observed Property": "Papp B→A", "Result Number": 4.2}
{"Given Smiles": "CNc1nccc(N2CC[C@H](NC(=O)Nc3ccc(CN4CCOCC4)c(C(F)(F)F)c3)C2)n1", "Observed Property": "Papp B→A", "Result Number": 12.2}
{"Given Smiles": "CNc1nccc(N2CC[C@H](NC(=O)Nc3ccc(Cl)c(C(F)(F)F)c3)C2)n1", "Observed Property": "Papp B→A", "Result Number": 4}
{"Given Smiles": "CNc1nccc(N2CC[C@H](NC(=O)Nc3ccc(CN4CCN(C)CC4)c(C(F)(F)F)c3)C2)n1", "Observed Property": "Papp B→A", "Result Number": 4.5}
